Values from paper PMC10786891

SUBJECT_OF_TEST: T1, EsCas13d, nuclease-dead (Eubacterium siraeum, UniProt B0MS50, R295A;H300A;R849A;H854A)
T1 sequence: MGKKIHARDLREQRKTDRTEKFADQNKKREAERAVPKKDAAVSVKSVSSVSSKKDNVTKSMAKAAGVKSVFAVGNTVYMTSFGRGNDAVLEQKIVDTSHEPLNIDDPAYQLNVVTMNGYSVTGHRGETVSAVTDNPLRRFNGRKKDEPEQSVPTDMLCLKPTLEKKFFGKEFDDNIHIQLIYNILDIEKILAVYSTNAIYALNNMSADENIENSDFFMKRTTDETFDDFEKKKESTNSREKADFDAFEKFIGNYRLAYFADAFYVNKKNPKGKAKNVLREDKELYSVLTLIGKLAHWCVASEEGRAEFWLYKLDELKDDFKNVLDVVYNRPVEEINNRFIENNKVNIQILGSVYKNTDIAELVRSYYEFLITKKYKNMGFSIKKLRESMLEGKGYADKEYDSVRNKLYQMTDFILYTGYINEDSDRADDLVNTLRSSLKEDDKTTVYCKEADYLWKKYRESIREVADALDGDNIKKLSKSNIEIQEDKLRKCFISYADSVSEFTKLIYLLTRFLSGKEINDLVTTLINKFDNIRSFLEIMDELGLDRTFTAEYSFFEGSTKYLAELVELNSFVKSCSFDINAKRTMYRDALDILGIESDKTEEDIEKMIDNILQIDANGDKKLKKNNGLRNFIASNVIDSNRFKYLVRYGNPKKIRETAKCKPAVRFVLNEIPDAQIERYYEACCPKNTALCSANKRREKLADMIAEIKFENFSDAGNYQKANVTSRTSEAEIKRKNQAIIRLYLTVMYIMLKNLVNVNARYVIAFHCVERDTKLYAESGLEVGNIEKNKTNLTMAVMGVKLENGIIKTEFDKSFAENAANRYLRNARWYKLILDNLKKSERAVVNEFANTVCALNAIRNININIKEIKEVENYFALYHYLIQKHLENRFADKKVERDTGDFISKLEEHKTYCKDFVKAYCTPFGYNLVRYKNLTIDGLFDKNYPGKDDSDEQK
TEST_DESCRIPTION: crRNA (strand 1, pre-loaded); Mg2+; 40 mM Tris-HCl pH 7.5, 150 mM NaCl, 6 mM MgCl2, 1 mM DTT, 0.1% Tween-20, 0.2 mg/ml BSA; 25 C; 10 min per concentration, then washed
CONDITIONS_USED: tags: His6-TwinStrep-SUMO cleaved; N-terminal SNAP kept (SNAP-Surface 488); label: 3' end held by stalled T7 RNA polymerase
The reader will find reported Kd values listed item by item below.
Reply with just the number (in nM).

BINDER	MEASUREMENT_UNIT	Kd
target 2 MT 5'PFS GCG 3'PFS CGG (mixed) RNA 1: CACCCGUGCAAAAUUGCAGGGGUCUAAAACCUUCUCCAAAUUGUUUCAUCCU RNA 2: GGGAAUGGAUCCACAUCUACGAAUUCGCGAGGAUGAAACAAUUUGGAGAAGCGGAGAUCGGAAGAGCACACGU	nM	11.9
target 1 MT 5'PFS GGG 3'PFS CCU (mixed) RNA 1: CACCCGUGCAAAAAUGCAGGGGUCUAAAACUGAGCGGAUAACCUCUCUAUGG RNA 2: GGGAAUGGAUCCACAUCUACGAAUUCGGGCCAUAGAGAGGUUAUCCGCUCACCUAGAUCGGAAGAGCACACGU	nM	18.5

Turning now to a further binder:
Give its Kd value. Item: target 1 MT 5'PFS ACG 3'PFS UUC (mixed) RNA 1: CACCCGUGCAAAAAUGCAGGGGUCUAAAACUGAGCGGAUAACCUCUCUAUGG RNA 2: GGGAAUGGAUCCACAUCUACGAAUUCACGCCAUAGAGAGGUUAUCCGCUCAUUCAGAUCGGAAGAGCACACGU
19.5
